Test: Pharmacokinetics studies in mice
Type: in vivo, CD-1 mice
Settings: CD-1; mouse plasma; IV 1 mg/Kg
readoutLabel: half-life (h)
Answers are plain numbers, in h.

Input line: Which half-life is reported for this compound? CN(C)C/C=C/C(=O)Nc1cc2c(Nc3ccc(F)c(Cl)c3)ncnc2cc1OC[C@H]1[C@@H]2COC[C@@H]21 [NT112]
Output line: 4.44

====

Test system: Human breast cancer BT474 cells
Experiment: Cell proliferation inhibition assay for BT474 (CCK-8)
Assay type: cell-based
Details: BT-474, 72 h, text calls it EC50
Experimental: 1) Human breast cancer BT474 cells were plated 10000 cells/well in a 96-well clear tissue culture plate. The cells were incubated for 24 h at 37° C. to allow adherence. 2) A serials of concentrations of each compound (ranging from 30 uM to 0.16 nM, 5-fold dilution) in 96-well plate, and incubated for 72 h. […] 3) The culture medium was removed via aspiration, and the cell viability was detected by CCK-8 cell proliferation kit. 4) The EC50 was calculated based on the proliferation curve.
readoutLabel: pIC50
One number for each entry, as −log10 of the molar value.

In the examples that follow, each entry is paired with its recorded pIC50.
>  <molecule>
CN(C)C/C=C/C(=O)Nc1cc2c(Nc3ccc(F)c(Cl)c3)ncnc2cc1OC[C@]12COC[C@H]1C2 [Example 3]

>  <pIC50>
7.50

$$$$
>  <molecule>
CN(C)C/C=C/C(=O)Nc1cc2c(Nc3ccc(F)c(Cl)c3)ncnc2cc1OCC12COCC1C2 (centres unmarked) [Example 5]

>  <pIC50>
6.80

$$$$
>  <molecule>
CN(C)C/C=C/C(=O)Nc1cc2c(Nc3ccc(F)c(Cl)c3)ncnc2cc1OCC1C2COCC21 (centres unmarked) [Example 2]

>  <pIC50>
7.72

$$$$
>  <molecule>
CN(C)C/C=C/C(=O)Nc1cc2c(Nc3ccc(F)c(Cl)c3)ncnc2cc1OC[C@@]12COC[C@@H]1C2 [Example 4]

>  <pIC50>
7.59

$$$$

Let us move to another entry and its pIC50.
Input line: Which pIC50 is reported for this molecule? CO[C@@H]1CO[C@@H]2[C@H]1OC[C@@H]2Oc1cc2ncnc(Nc3ccc(F)c(Cl)c3)c2cc1NC(=O)/C=C/CN(C)C [Example 1]
Output line: 7.44
